Where do the numbers come from? From patent US12116358B2.

Biological target: SETD2(1434-1711) (Homo sapiens)
Construct: SETD2 (1434-1711) Assay; catalogue N/A
Sequence (Q9BYW2 1434-1711): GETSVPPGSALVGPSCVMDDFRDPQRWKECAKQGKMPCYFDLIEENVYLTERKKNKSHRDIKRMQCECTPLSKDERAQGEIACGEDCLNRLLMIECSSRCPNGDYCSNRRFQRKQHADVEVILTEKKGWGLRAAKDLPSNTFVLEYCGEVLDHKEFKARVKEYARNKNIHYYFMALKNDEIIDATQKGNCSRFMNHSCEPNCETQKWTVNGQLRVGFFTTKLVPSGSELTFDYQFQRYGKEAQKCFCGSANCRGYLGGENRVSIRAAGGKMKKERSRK
Test: SETD2 (1434-1711) assay
Type: biochemical
Details: read-out: SETD2 (1434-1711)
READOUT_LABEL: IC50 (nM)

Item: Cc1ccc(F)c2cc(C(=O)Nc3cccc(N4CCN5C(=O)N(C)CC5C4)c3)[nH]c12 (centres unmarked) | IC50: 30

Item: Cc1ccc(F)c2cc(C(=O)N[C@@H]3CCC[C@H](N4CCC5(CC4)CNC(=O)N5)C3)[nH]c12 | IC50: 20

Item: Cc1ccc(F)c2cc(C(=O)Nc3cccc(N4CCOCC4CCO)c3)[nH]c12 (centres unmarked) | IC50: 600

Item: COCC1(COC)CCN(c2cccc(NC(=O)c3cc4c(F)ccc(C)c4[nH]3)c2)CC1 | IC50: 70

Item: Cc1ccc(F)c2cc(C(=O)NC3CCCC(N4CCn5ccnc5C4)C3)[nH]c12 (centres unmarked) | IC50: 100

Item: CCCNC1CCN(c2cccc(NC(=O)c3cc4c(F)ccc(C)c4[nH]3)c2)CC1 | IC50: 30

Item: CNC(=O)N1CCN(c2cccc(NC(=O)c3cc4c(F)ccc(C)c4[nH]3)c2)CC1 | IC50: 50

Item: CC(=O)N1CCC([C@H]2CCC[C@@H](NC(=O)c3cc4c(F)ccc(C)c4[nH]3)C2)CC1 | IC50: 6

1 = COc1ccc(C)c2[nH]c(C(=O)NC(CCC(=O)N3CCOCC3)c3ncccc3C)cc12 (centres unmarked)
2 = Cc1cccc2cc(C(=O)Nc3ccc4ccccc4c3)[nH]c12
**Q:** Hi team, can someone confirm which has the larger IC50: 1 or 2 ? Thanks. Identify your selection by its label.
**A:** 1
(1: 24900 nM, 2: 1900 nM)

a = Cc1cccc2cc(C(=O)NC3CCCN(C(=O)CCCN)C3)[nH]c12 (centres unmarked)
b = Cc1ccc(F)c2cc(C(=O)Nc3cccc(N4CCC(N5CC(O)C5)C4)c3)[nH]c12 (centres unmarked)
c = CCOC(=O)N1CCN([C@H]2CCC[C@@H](NC(=O)c3cc4c(F)ccc(C)c4[nH]3)C2)CC1
d = Cc1ccc(F)c2cc(C(=O)N[C@@H]3CCC[C@H](N4CCC5(CCC(=O)N5)CC4)C3)[nH]c12
e = CCC(=O)N1CCN(C2CCCC(NC(=O)c3cc4c(F)ccc(C)c4[nH]3)C2)CC1C(F)(F)F (centres unmarked) [compound 1164]
**Q:** Order the 5 compounds from highest to lowest IC50. Give me the labels in the order the question wants.
**A:** a, e, b, d, c
(a: 31700 nM, e: 2100 nM, b: 50 nM, d: 30 nM, c: 10 nM)

1 = Cc1ccc(F)c2cc(C(=O)NC3CCCC(N4CCC(N(C)C(=O)C(C)C)C4)C3)[nH]c12 (centres unmarked) [compound 970]
2 = Cc1ccc(F)c2cc(C(=O)NC3CCCC(N4CCC5(CC4)COC(=O)N5)C3)[nH]c12 (centres unmarked) [compound 895]
3 = Cc1ccc(F)c2cc(C(=O)NC3CCCC(N4CCN5C(=O)CN(C)C(=O)C5C4)C3)[nH]c12 (centres unmarked) [compound 1103]
4 = Cc1ccc(F)c2cc(C(=O)Nc3cccc(-c4cnc(N)[nH]4)c3)[nH]c12
5 = Cc1cccc2cc(C(=O)N[C@H]3CC[C@H](NC(=O)CCN4CCCCC4)CC3)[nH]c12
**Q:** Put the items in order so that reported IC50 rises from first to last. Give me the labels in the order the question wants.
**A:** 2, 3, 4, 1, 5
(2: 50 nM, 3: 100 nM, 4: 400 nM, 1: 5000 nM, 5: 37400 nM)
